Measured values drawn from ChEMBL document CHEMBL1201862 for this set.

tested on: IGROV-1; assay: NCI tumour cell line growth inhibition, 48 h
Activity calls are given as the source filed them. Cut-off read from the data, not from the text of the source: active = GI50 up to about 1.1 µM and inactive = higher.
Return exactly one item of YES (active), NO (inactive)

So what was the verdict on CC1=Nc2ccccc2C12C(c1ccccc1)C(c1ccccc1)C(=O)N1c3ccccc3CC12 (centres undefined) in this test?
NO

So what was the verdict on O=C1/C(=C/c2ccccc2)CN(C(=O)C(Cl)(Cl)Cl)C/C1=C\c1ccccc1 in this test?
NO

So what was the verdict on O=C1CCCc2ccc3c(c21)CC1(Cc2ccccc2C1)C3 in this test?
NO

So what was the verdict on Cc1ncc([N+](=O)[O-])n1CC[N+](C)([O-])CCCCn1ccnc1[N+](=O)[O-] (centres undefined) in this test?
NO

So what was the verdict on Cc1[nH]c2c(c1Cc1ccccc1)C1=NC=C(O)NN1C=N2 in this test?
NO

So what was the verdict on Cc1ccc2c(O)cc(-c3ccccc3)nc2n1 in this test?
YES

So what was the verdict on CN(NC(=O)/C(=C\c1ccco1)NC(=O)c1ccccc1)c1cn[nH]c(=O)c1Cl in this test?
NO

So what was the verdict on O=C(O)c1ccccc1-c1ccccc1C(=O)Nc1ccc2c(c1)Cc1cc(F)ccc1-2 in this test?
NO

So what was the verdict on CC(C)CCCC(C)[C@H]1CCC2[C@@H]3CCC4Nc5c(cnn5-c5ccccc5)C[C@]4(C)C3CC[C@@]21C (some centres undefined) in this test?
NO

So what was the verdict on CC1C(c2ccc(Cl)cc2)c2cc3c(cc2OC1N1CCOCC1)OCO3 (centres undefined) in this test?
NO

So what was the verdict on Cc1ccc([N+](=O)[O-])cc1S(=O)(=O)Nc1ccc(C(=O)/C=C/c2ccccc2)cc1 in this test?
NO

So what was the verdict on CCOC(=O)CCC(NC(=O)c1ccc(/N=C/c2nc3ccccc3nc2-c2ccccc2)cc1)C(=O)OCC (centres undefined) in this test?
NO

So what was the verdict on N#Cc1c(C(N)=O)ncn1Cc1ccccc1 in this test?
NO

So what was the verdict on CC1=C2C3OC(=O)C(C)C3C(O)C[C@@]2(C)C(=O)CC1 (some centres undefined) in this test?
NO

So what was the verdict on CCOC(=O)/C(C(N)=O)=C(O)/C(O)=C/C(=O)c1ccc(Cl)cc1 in this test?
NO

So what was the verdict on OCCOCCN1CCN(c2nc(N3CCCC3)c3nc(Cl)c(NCc4ccccc4)nc3n2)CC1 in this test?
NO

So what was the verdict on COc1ccc(C(=O)O)c(Cc2cccc3ccccc23)c1 in this test?
NO

So what was the verdict on CC(C)(C)c1cc2c(O)c(c1)Cc1cc(C(C#N)(Cc3ccc4ccccc4c3)Cc3ccc4ccccc4c3)cc(c1O)Cc1cc(C(C)(C)C)cc(c1O)Cc1cc(C(C#N)(Cc3ccc4ccccc4c3)Cc3ccc4ccccc4c3)cc(c1O)C2 in this test?
NO

So what was the verdict on CCOC(=O)NC(=O)c1cn(CCCOC(=O)CCCCCCCCC(=O)OCCCn2cc(C(=O)NC(=O)OCC)c(=O)[nH]c2=O)c(=O)[nH]c1=O in this test?
NO

* * *

Kindly state GI50 for each of the entries shown.
system: SF-295; experiment: NCI tumour cell line growth inhibition, 48 h
Activity calls are given as the source filed them. No stated cut-off is given here; in the data, active = GI50 up to about 1.1 µM and inactive = higher.

Please give the measured GI50 for this compound: Cc1cccc(C)c1NC(=O)C(=O)C1C(=O)N(c2ccccc2)N=C1N (centres undefined)
> 100 µM (inactive)

Please give the measured GI50 for this compound: C[n+]1c2ccccc2c(/C=N\NS(=O)(=O)c2ccc(Cl)cc2)c2ccccc21
59.4 µM (inactive)

Please give the measured GI50 for this compound: O=C(CCc1ccc(O)c(O)c1)OCCc1ccccc1
> 100 µM (inactive)

Please give the measured GI50 for this compound: CN(/N=C/c1cccc2cccnc12)c1ccc([N+](=O)[O-])cc1[N+](=O)[O-]
13 µM (inactive)

Please give the measured GI50 for this compound: Cc1cc(NS(=O)(=O)c2ccc(Nc3c4ccccc4nc4c(C(=O)NCCO)cccc34)cc2)no1
38.7 µM (inactive)

Please give the measured GI50 for this compound: O=C(CC(=O)Nc1ccc(C(=O)O)cc1)Nc1ccc(C(=O)O)cc1
> 100 µM (inactive)

Please give the measured GI50 for this compound: Cc1ccc(Nc2n[nH]c(NS(=O)(=O)c3cc(C)c(Cl)cc3S)n2)cc1
> 100 µM (inactive)

Please give the measured GI50 for this compound: Cc1ccc([N+](=O)[O-])cc1S(=O)(=O)Nc1ccc(C2=NN(c3ccc([N+](=O)[O-])cc3[N+](=O)[O-])C(c3ccccc3)C2)cc1 (centres undefined)
14.3 µM (inactive)

Please give the measured GI50 for this compound: O=P1(C(O)/C=C/c2ccccc2)N(Cc2ccccc2)[C@@H]2CCCC[C@H]2N1Cc1ccccc1 (some centres undefined)
4.42 µM (inactive)

Please give the measured GI50 for this compound: O=C(OC(=C(c1ccccc1)c1ccccc1)N1CCCC1=S)C(c1ccccc1)c1ccccc1
> 10 µM (inactive)

Please give the measured GI50 for this compound: COC1=C(C(c2cc(OC)c(OC)c(OC)c2)c2cc3c(cc2OC)OCO3)C(=O)OC1 (centres undefined)
15.1 µM (inactive)

Please give the measured GI50 for this compound: CCN(CC)C(=O)c1ccc(C)c(/N=N/N(C)C)c1
> 100 µM (inactive)

Please give the measured GI50 for this compound: CC1=C(O)C(=O)C=C2C1=CC=C1[C@@]2(C)CC[C@@]2(C)C3C[C@@H](C)C(=O)[C@@H](O)[C@]3(C)CC[C@]12C (some centres undefined)
4.55 µM (inactive)

Please give the measured GI50 for this compound: COc1cc([C@@H]2c3cc4c(cc3[C@@H](NCc3ccccc3)C3COC(=O)[C@@H]32)OCO4)cc(OC)c1O (some centres undefined)
4.03 µM (inactive)

Please give the measured GI50 for this compound: COc1cc(/C=C2/C(=O)N(C(=O)OC(C)C)C(Cc3cc(OC)c(OC)c(C)c3OC)C(=O)N2Cc2ccccc2)c(OC)c(C)c1OC (centres undefined)
68.7 µM (inactive)

Please give the measured GI50 for this compound: FC1CCN(C2(c3cccs3)CCCCC2)CC1
> 100 µM (inactive)

Please give the measured GI50 for this compound: CC[P+](C)(C)c1ccccc1
> 100 µM (inactive)

Please give the measured GI50 for this compound: O=C(O)C(Cc1ccccc1)Cc1ccccc1
> 100 µM (inactive)

Please give the measured GI50 for this compound: COC(=O)C1CCC(=O)N1C(c1ccc2c(c1)OCO2)c1cc(OC)c(OC)c(OC)c1 (centres undefined)
> 100 µM (inactive)
